SYSTEM_TESTED: human NK2 receptor (Homo sapiens, UniProt P21452)
Sequence (P21452 whole entry): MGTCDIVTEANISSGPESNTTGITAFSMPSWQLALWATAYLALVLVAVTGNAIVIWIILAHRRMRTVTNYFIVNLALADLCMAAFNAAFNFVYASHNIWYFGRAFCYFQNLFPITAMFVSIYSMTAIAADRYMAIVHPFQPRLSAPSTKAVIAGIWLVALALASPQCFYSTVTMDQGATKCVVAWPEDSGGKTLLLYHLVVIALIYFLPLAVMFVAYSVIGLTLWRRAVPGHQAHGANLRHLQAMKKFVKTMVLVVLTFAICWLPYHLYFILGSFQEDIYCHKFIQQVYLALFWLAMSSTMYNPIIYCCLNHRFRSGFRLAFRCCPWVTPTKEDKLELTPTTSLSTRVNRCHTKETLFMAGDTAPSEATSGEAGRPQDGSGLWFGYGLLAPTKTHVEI
READOUT: Ki (nM)

[[record]]
molecule = "O=C(CC(CCN1CCC(O)(c2ccccc2)CC1)c1ccc(Cl)c(Cl)c1)NCc1ccccc1 (stereo not shown)"
unit_label = "nM"
reported_result = 15


Data provenance is patent EP0808303B1.
